target: PCSK9Δhelix (Homo sapiens, UniProt Q8NBP7); construct: Human PCSK9 construct M1-Q692 with an engineered TEV site (residue deletion Y166, R167); made in house; host or cells: CHO; experiment: PCSK9Δhelix/Ab20 TR-FRET binding assay; conditions: TR-FRET; Table 8E, additional compounds; read-out: PCSK9Δhelix/Ab20 IC50
Sequence (Q8NBP7 with tags, fused parts or gaps limits assumed): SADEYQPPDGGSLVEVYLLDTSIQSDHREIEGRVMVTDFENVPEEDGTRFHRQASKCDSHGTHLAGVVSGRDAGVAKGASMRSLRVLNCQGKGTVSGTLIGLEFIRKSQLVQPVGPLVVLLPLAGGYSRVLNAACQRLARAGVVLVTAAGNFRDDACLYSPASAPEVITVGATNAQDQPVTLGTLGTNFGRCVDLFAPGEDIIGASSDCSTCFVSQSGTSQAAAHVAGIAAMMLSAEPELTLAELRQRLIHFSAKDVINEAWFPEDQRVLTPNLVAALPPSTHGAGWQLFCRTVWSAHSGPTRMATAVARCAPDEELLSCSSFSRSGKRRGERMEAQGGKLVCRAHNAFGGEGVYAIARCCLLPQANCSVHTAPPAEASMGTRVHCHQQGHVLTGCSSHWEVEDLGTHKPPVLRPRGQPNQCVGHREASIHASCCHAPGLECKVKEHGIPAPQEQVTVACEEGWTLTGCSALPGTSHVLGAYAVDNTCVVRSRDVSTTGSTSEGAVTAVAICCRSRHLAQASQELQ
Sequence (Q8NBP7 31-152 partner limits assumed): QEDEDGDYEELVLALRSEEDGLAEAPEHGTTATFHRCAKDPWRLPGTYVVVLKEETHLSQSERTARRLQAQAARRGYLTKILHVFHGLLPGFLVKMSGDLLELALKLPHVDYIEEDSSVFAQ
Square brackets hold non-standard residues; d marks the D form. Peptide text beside a SMILES is read from it. * marks the point of attachment. hArg = N=C(N)NCCCC[C@H](N)C(=O)O; X40 = CC(CC(=O)*)CC(C)(C)C; X27 = O=C(CCCN1CCOCC1)*
For each entry below, report its IC50 value.
Give bare numbers, in µM.

Quick note, IC50 for CC[C@H](C)[C@H](NC(=O)[C@H](CCCNC(=N)N)NC(=O)[C@@H](NC(=O)[C@H](CC(C)C)NC(=O)[C@H](CC(N)=O)NC(=O)[C@H](Cc1c[nH]c2ccccc12)NC(=O)CC(C)CC(C)(C)C)C(C)C)C(=O)NCC(=O)N[C@@H](CC(C)C)C(=O)N[C@@H](CC(C)C)C(=O)N[C@@H](CCCNC(=N)N)C(N)=O (some centres unmarked) [Compound 149] (X40-WNLVRIGLLR-NH2) landed at 8.9

Moving on to another molecule below.
Quick note, IC50 for CC[C@H](C)[C@H](NC(=O)[C@H](CCCCNC(=N)N)NC(=O)[C@@H](NC(=O)[C@H](CC(C)C)NC(=O)[C@H](CC(N)=O)NC(=O)[C@H](Cc1c[nH]c2ccccc12)NC(=O)CCCN1CCOCC1)C(C)C)C(=O)NCC(=O)N[C@@H](CC(C)C)C(=O)N[C@@H](CC(C)C)C(=O)N[C@@H](CCCNC(=N)N)C(N)=O [Compound 193] (X27-WNLV[hArg]IGLLR-NH2) landed at 1.5

====

For each entry below, report its IC50 value.
tested on: His-EGF(A)-Fc; experiment: His-EGF(A)-Fc TR-FRET counterscreen; conditions: TR-FRET counterscreen; Table 8D; * = some inhibition at highest concentrations, not sufficient to fit an IC50
Bridge positions count the residues as written; N and C are the ends. Square brackets hold non-standard residues; d marks the D form. Peptide text beside a SMILES is read from it. * marks the point of attachment. Fmoc = O=C(OCC1c2ccccc2-c2ccccc21)*

Quick note, IC50 for CC[C@H](C)[C@@H]1NC(=O)[C@H](CCCNC(=N)N)NC(=O)[C@H](CCCCN)NC(=O)[C@H](CC(C)C)NC(=O)[C@H](CC(N)=O)NC(=O)[C@H](Cc2c[nH]c3ccccc23)NC(=O)[C@@H](NC(=O)CNC(=O)[C@H](CO)NC(=O)CNC(=O)OCC2c3ccccc3-c3ccccc32)CSSC[C@@H](C(N)=O)NC(=O)CNC(=O)[C@H](CCC(N)=O)NC(=O)[C@H](CO)NC(=O)CNC1=O [Compound 98] (Fmoc-GSGCWNLKRIGSQGC-NH2; disulfide 4-15) landed at > 50 µM

Next:
Quick note, IC50 for CC[C@H](C)[C@@H]1NC(=O)[C@H](CCCNC(=N)N)NC(=O)[C@@H](CCC(N)=O)NC(=O)[C@H](CC(C)C)NC(=O)[C@H](CC(N)=O)NC(=O)[C@H](Cc2c[nH]c3ccccc23)NC(=O)[C@@H]2CCCN2C(=O)[C@H](CC(C)C)NC(=O)[C@H](CCCNC(=N)N)NC(=O)[C@@H](NC(C)=O)CSSC[C@@H](C(N)=O)NC(=O)[C@@H]2CCCN2C(=O)[C@H](CC(C)C)NC(=O)CNC1=O [Compound 103, Ac-CRLPWNLqRIGLPC-NH2] (Ac-CRLPWNL[dQ]RIGLPC-NH2; disulfide 1-14) landed at > 50 µM

====

For each entry below, report its Kd value.
target: UniProtKB Q8NBP7; assay: Surface plasmon resonance biosensor-based affinity analysis (Example 4); type: binding; conditions: Table 7, Target PCSK9, SPR at 20° C.
Bridge positions count the residues as written; N and C are the ends. Peptide text beside a SMILES is read from it.
Numbers only, in µM.

Observe how each entry below is paired with its result.
Quick note, Kd for CC[C@H](C)[C@@H]1NC(=O)[C@H](CCCNC(=N)N)NC(=O)[C@H](CCC(N)=O)NC(=O)[C@H](CC(C)C)NC(=O)[C@H](CC(N)=O)NC(=O)[C@H](Cc2c[nH]c3ccccc23)NC(=O)[C@@H]2CCCN2C(=O)[C@H]([C@@H](C)CC)NC(=O)[C@H](Cc2ccccc2)NC(=O)[C@@H](NC(=O)CNC(=O)[C@@H](N)CO)CSSC[C@@H](C(N)=O)NC(=O)[C@H](CC(C)C)NC(=O)[C@H](CC(C)C)NC(=O)CNC1=O [Compound 26] (H-SGCFIPWNLQRIGLLC-NH2; disulfide 3-16) landed at 29

Quick note, Kd for CC[C@H](C)[C@@H]1NC(=O)[C@H](CCCNC(=N)N)NC(=O)[C@H](CCC(N)=O)NC(=O)[C@H](CC(C)C)NC(=O)[C@H](CC(N)=O)NC(=O)[C@H](Cc2c[nH]c3ccccc23)NC(=O)[C@@H]2CCCN2C(=O)[C@H](CC(C)C)NC(=O)[C@H](CCCNC(=N)N)NC(=O)[C@@H](NC(C)=O)CSSC[C@@H](C(N)=O)NC(=O)[C@@H]2CCCN2C(=O)[C@H](CC(C)C)NC(=O)CNC1=O [Compound 32] (Ac-CRLPWNLQRIGLPC-NH2; disulfide 1-14) landed at 1.3

Moving on to another compound below.
Quick note, Kd for CC[C@H](C)[C@@H]1NC(=O)[C@H](CCCNC(=N)N)NC(=O)[C@H](C)NC(=O)[C@H](CC(C)C)NC(=O)[C@H](CC(N)=O)NC(=O)[C@H](Cc2c[nH]c3ccccc23)NC(=O)[C@@H]2CCCN2C(=O)[C@H](CC(C)C)NC(=O)[C@H](CCCNC(=N)N)NC(=O)[C@@H](NC(C)=O)CSSC[C@@H](C(N)=O)NC(=O)[C@@H]2CCCN2C(=O)[C@H](CC(C)C)NC(=O)CNC1=O [Compound 73] (Ac-CRLPWNLARIGLPC-NH2; disulfide 1-14) landed at 11

====

target: PCSK9Δhelix (Homo sapiens, UniProt Q8NBP7); construct: Human PCSK9 construct M1-Q692 with an engineered TEV site (residue deletion Y166, R167); made in house; host or cells: CHO; assay: PCSK9Δhelix/Ab20 TR-FRET binding assay; details: Table 11, average ±S.D. of three experiments; read-out: Ab20 IC50
Square brackets hold non-standard residues; d marks the D form. Peptide text beside a SMILES is read from it. hArg = N=C(N)NCCCC[C@H](N)C(=O)O
endpoint_name: IC50 (nM)
One number for each entry, in nM.

Quick note, IC50 for CC[C@H](C)[C@H](NC(=O)[C@H](CCCCNC(=N)N)NC(=O)[C@@H](NC(=O)[C@H](CC(C)C)NC(=O)[C@H](CC(N)=O)NC(=O)[C@H](Cc1c[nH]c2ccccc12)NC(=O)CNC(=O)[C@@H]1CCCN1C(=O)[C@H](Cc1ccccc1)NC(=O)[C@H](C)NC(=O)[C@H](Cc1ccccc1)NC(=O)[C@H](CO)NC(C)=O)C(C)C)C(=O)NCC(=O)N[C@@H](CC(C)C)C(=O)N[C@@H](CC(C)C)C(=O)N[C@@H](CCCNC(=N)N)C(N)=O [Compound 228] (Ac-SFAFPGWNLV[hArg]IGLLR-NH2) landed at 1370

====

target: PCSK9Δhelix (Homo sapiens, UniProt Q8NBP7); construct: Human PCSK9 construct M1-Q692 with an engineered TEV site (residue deletion Y166, R167); made in house; host or cells: CHO; assay: PCSK9Δhelix/Ab20 TR-FRET binding assay; conditions: TR-FRET; Table 8D, disulfide-cyclized extension peptides; read-out: PCSK9Δhelix/Ab20 IC50
Bridge positions count the residues as written; N and C are the ends. Peptide text beside a SMILES is read from it.
endpoint_name: IC50 (µM)
One number for each entry, in µM.

Quick note, IC50 for CC[C@H](C)[C@@H]1NC(=O)[C@H](CCCNC(=N)N)NC(=O)[C@H](C)NC(=O)[C@H](CC(C)C)NC(=O)[C@H](CC(N)=O)NC(=O)[C@H](Cc2c[nH]c3ccccc23)NC(=O)[C@H](CC(C)C)NC(=O)[C@@H](NC(=O)[C@H](Cc2ccccc2)NC(C)=O)CSSC[C@@H](C(=O)N[C@@H](Cc2c[nH]c3ccccc23)C(=O)N[C@@H](Cc2ccccc2)C(N)=O)NC(=O)[C@H](CCC(N)=O)NC(=O)[C@H](CO)NC(=O)CNC1=O [Compound 88] (Ac-FCLWNLARIGSQCWF-NH2; disulfide 2-13) landed at 7.46

Moving on to another molecule below.
Quick note, IC50 for CC(=O)N[C@H]1CSSC[C@@H](C(N)=O)NC(=O)[C@@H]2CCCN2C(=O)[C@H](CC(C)C)NC(=O)CNC(=O)[C@H](C)NC(=O)[C@H](CCCNC(=N)N)NC(=O)[C@H](CCC(N)=O)NC(=O)[C@H](CC(C)C)NC(=O)[C@H](CC(N)=O)NC(=O)[C@H](Cc2c[nH]c3ccccc23)NC(=O)[C@@H]2CCCN2C(=O)[C@H](CC(C)C)NC(=O)[C@H](CCCNC(=N)N)NC1=O [Compound 71] (Ac-CRLPWNLQRAGLPC-NH2; disulfide 1-14) landed at 49.5
